The origin of these recorded values is ChEMBL document CHEMBL1811845.

# study system: Gamma-aminobutyric acid receptor subunit alpha-5/beta-2 (Homo sapiens, UniProt P31644+P47870)
# Sequence (P47870 whole entry): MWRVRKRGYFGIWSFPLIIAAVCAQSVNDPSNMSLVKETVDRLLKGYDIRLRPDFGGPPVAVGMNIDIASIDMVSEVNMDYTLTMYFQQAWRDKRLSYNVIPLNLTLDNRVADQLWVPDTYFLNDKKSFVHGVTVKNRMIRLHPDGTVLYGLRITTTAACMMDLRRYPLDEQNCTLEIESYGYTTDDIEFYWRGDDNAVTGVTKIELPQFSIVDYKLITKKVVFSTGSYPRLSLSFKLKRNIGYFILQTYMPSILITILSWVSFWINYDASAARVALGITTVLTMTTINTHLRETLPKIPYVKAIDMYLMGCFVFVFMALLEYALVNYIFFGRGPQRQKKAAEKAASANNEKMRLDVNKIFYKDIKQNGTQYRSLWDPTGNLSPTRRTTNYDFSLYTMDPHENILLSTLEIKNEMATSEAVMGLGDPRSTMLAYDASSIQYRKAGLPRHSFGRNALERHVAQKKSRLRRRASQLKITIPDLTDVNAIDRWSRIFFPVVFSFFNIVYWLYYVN
# Sequence (P31644 whole entry): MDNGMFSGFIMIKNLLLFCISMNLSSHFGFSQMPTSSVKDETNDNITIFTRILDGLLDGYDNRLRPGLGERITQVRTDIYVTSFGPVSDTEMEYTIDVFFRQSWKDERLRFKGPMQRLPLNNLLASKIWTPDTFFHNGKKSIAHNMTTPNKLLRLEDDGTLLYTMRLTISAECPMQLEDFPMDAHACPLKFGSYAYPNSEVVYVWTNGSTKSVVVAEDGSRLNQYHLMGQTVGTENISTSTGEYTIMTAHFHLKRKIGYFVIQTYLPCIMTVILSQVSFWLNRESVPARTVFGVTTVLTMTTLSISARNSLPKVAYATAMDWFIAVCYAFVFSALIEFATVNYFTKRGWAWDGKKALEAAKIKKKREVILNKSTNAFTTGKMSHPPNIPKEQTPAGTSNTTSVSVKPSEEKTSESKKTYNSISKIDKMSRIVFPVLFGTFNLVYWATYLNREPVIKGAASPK
# assay details: Modulation of GABA Aalpha5beta2 receptor expressed in Xenopus laevis oocytes assessed as potentiation of GABA-induced chloride current at holding potential -70 mV by two-microelectrode voltage clamp technique
# Assay type: cell-based, Oocyte
pEC50: −log10 of the molar value.

molecule | pEC50
C=CCc1cc(NC(C)=O)c(O)c(-c2ccc(OC)c(CC=C)c2)c1 | 5.64
C=CCc1ccc(O)c(-c2ccc(O)c(CC=C)c2)c1 [HONOKIOL] | 4.63
CCCc1cc(N)c(O)c(-c2ccc(OC)c(CCC)c2)c1 | 5.28
